- Measured Target: T1, HLA-A*11:01 (human)
- T1 construct: Recombinant MHC class I molecule without the test peptide; the peptide is the other partner
- Experimental Details: REVEAL MHC-peptide binding assay, recombinant HLA-A*11:01
Below: a set of entries, each annotated with reported In Vitro Score.
Property Name: In Vitro Score

INSERT INTO measurements (binder, value_observed) VALUES
  ('FIIFWVLRG (synthetic 9-mer; the entry already carries the mutation) [FIIFWVLRG (SEQ ID NO: 32)]', '2.4 % of positive control peptide'),
  ('IIFWVQRGS (synthetic 9-mer; the entry already carries the mutations) [IIFWVQRGS (SEQ ID NO: 77)]', '16.9 % of positive control peptide'),
  ('VAFIIFWVQ (synthetic 9-mer; the entry already carries the mutation) [VAFIIFWVQ (SEQ ID NO: 50)]', '3.9 % of positive control peptide'),
  ('IFWVLRGRK (synthetic 9-mer; the entry already carries the mutation) [IFWVLRGRK (SEQ ID NO: 34)]', '29.3 % of positive control peptide'),
  ('AFIIFWVQR (synthetic 9-mer; the entry already carries the mutation) [AFIIFWVQR (SEQ ID NO: 51)]', '15 % of positive control peptide'),
  ('FWVHRGRKK (synthetic 9-mer; the entry already carries the mutation) [FWVHRGRKK (SEQ ID NO: 42)]', '5.6 % of positive control peptide'),
  ('FIIFWVSRG (synthetic 9-mer; the entry already carries the mutation) [FIIFWVSRG (SEQ ID NO: 25)]', '5.1 % of positive control peptide'),
  ('FWVQRGSKK (synthetic 9-mer; the entry already carries the mutations) [FWVQRGSKK (SEQ ID NO: 79)]', '6.8 % of positive control peptide'),
  ('WVKRGRKKL (synthetic 9-mer) [WVKRGRKKL (SEQ ID NO: 22)]', '4.8 % of positive control peptide'),
  ('FWVQRGAKK (synthetic 9-mer; the entry already carries the mutations) [FWVQRGAKK (SEQ ID NO: 83)]', '18.3 % of positive control peptide'),
  ('WVLRGRKKL (synthetic 9-mer; the entry already carries the mutation) [WVLRGRKKL (SEQ ID NO: 36)]', '3.2 % of positive control peptide'),
  ('FIIFWVQRG (synthetic 9-mer; the entry already carries the mutation) [FIIFWVQRG (SEQ ID NO: 52)]', '1.5 % of positive control peptide'),
  ('FWVKRGLKK (synthetic 9-mer; the entry already carries the mutation) [FWVKRGLKK (SEQ ID NO: 63)]', '25.3 % of positive control peptide'),
  ('WVQRGSKKL (synthetic 9-mer; the entry already carries the mutations) [WVQRGSKKL (SEQ ID NO: 80)]', '5.9 % of positive control peptide'),
  ('FWVKRGRKK (synthetic 9-mer) [FWVKRGRKK (SEQ ID NO: 21)]', '6.5 % of positive control peptide'),
  ('FWVKRGHKK (synthetic 9-mer; the entry already carries the mutation) [FWVKRGHKK (SEQ ID NO: 67)]', '27.6 % of positive control peptide');
